Just for reference, patent US12416008B2 is where these values come from.

- Test system: galK 1 site
- assay_notes: red/white colony screen of editing efficiency at the galK 1 site (CREATE recombineering)
- Format: cell-based, E. coli MG1655
- details: induced for 3 hours with 1 mM theophylline
Editing Efficiency 1 mM Theo overview

>  <substance>
AU18: agRNA cassette AATAGGCCCAGACT, SEQ ID NO: 31 (expressed or natural sequence)

>  <system>
galK 1 site

>  <scale_unit>
%

>  <Editing Efficiency 1 mM Theo>
7

$$$$
>  <substance>
AU20: agRNA cassette AAATGGCCGGCAAT, SEQ ID NO: 33 (expressed or natural sequence)

>  <system>
galK 1 site

>  <scale_unit>
%

>  <Editing Efficiency 1 mM Theo>
0

$$$$
>  <substance>
GU17: agRNA cassette GTAAGGCCGCCGAT, SEQ ID NO: 49 (expressed or natural sequence)

>  <system>
galK 1 site

>  <scale_unit>
%

>  <Editing Efficiency 1 mM Theo>
0

$$$$
>  <substance>
GC1: agRNA cassette GCTGGGCCCTTCCC, SEQ ID NO: 52 (expressed or natural sequence)

>  <system>
galK 1 site

>  <scale_unit>
%

>  <Editing Efficiency 1 mM Theo>
0

$$$$
>  <substance>
A8: agRNA cassette CGGGGGACAATAGG, SEQ ID NO: 12 (expressed or natural sequence)

>  <system>
galK 1 site

>  <scale_unit>
%

>  <Editing Efficiency 1 mM Theo>
82

$$$$
>  <substance>
GC6: agRNA cassette GATTGGCCAGCAAC, SEQ ID NO: 57 (expressed or natural sequence)

>  <system>
galK 1 site

>  <scale_unit>
%

>  <Editing Efficiency 1 mM Theo>
40

$$$$
>  <substance>
AU9: agRNA cassette AAACGGCCCACTGT, SEQ ID NO: 23 (expressed or natural sequence)

>  <system>
galK 1 site

>  <scale_unit>
%

>  <Editing Efficiency 1 mM Theo>
22

$$$$

----------
Documented Editing Efficiency no Theo across a set of substances
- Test system: galK 1 site
- assay_notes: red/white colony screen of editing efficiency at the galK 1 site (CREATE recombineering)
- Format: cell-based, E. coli MG1655
- details: no theophylline, 3 hours recovery
measurement_type: Editing Efficiency no Theo (%)

>  <substance>
GC12: agRNA cassette GATAGGCCAGTTAC, SEQ ID NO: 63 (expressed or natural sequence)

>  <system>
galK 1 site

>  <scale_unit>
%

>  <result>
1

$$$$
>  <substance>
AU17: agRNA cassette AAAGGGCCAGGCAT, SEQ ID NO: 30 (expressed or natural sequence)

>  <system>
galK 1 site

>  <scale_unit>
%

>  <result>
0

$$$$
>  <substance>
AU11: agRNA cassette AATAGGCCACTTAT, SEQ ID NO: 25 (expressed or natural sequence)

>  <system>
galK 1 site

>  <scale_unit>
%

>  <result>
0

$$$$
>  <substance>
GU18: agRNA cassette GATTGGCCTACGGT, SEQ ID NO: 50 (expressed or natural sequence)

>  <system>
galK 1 site

>  <scale_unit>
%

>  <result>
0

$$$$
>  <substance>
GC8: agRNA cassette GGACGGCCCTGTGC, SEQ ID NO: 59 (expressed or natural sequence)

>  <system>
galK 1 site

>  <scale_unit>
%

>  <result>
1

$$$$
>  <substance>
AU6: agRNA cassette AAGGGGCCTATAAT, SEQ ID NO: 20 (expressed or natural sequence)

>  <system>
galK 1 site

>  <scale_unit>
%

>  <result>
5

$$$$
>  <substance>
GC15: agRNA cassette GCATGGCCTACTCC, SEQ ID NO: 65 (expressed or natural sequence)

>  <system>
galK 1 site

>  <scale_unit>
%

>  <result>
1

$$$$

----------
Items are presented alongside their recorded Editing Efficiency 1 mM Theo.
- Test system: galK 1 site
- assay_notes: red/white colony screen of editing efficiency at the galK 1 site (CREATE recombineering)
- Type: cell-based, E. coli MG1655
- details: induced for 3 hours with 1 mM theophylline

>  <substance>
GU2: agRNA cassette GCGAGGCCTACTAT, SEQ ID NO: 35 (expressed or natural sequence)

>  <system>
galK 1 site

>  <Editing Efficiency 1 mM Theo>
0%

$$$$
>  <substance>
GU11: agRNA cassette GTATGGCCTCGGAT, SEQ ID NO: 43 (expressed or natural sequence)

>  <system>
galK 1 site

>  <Editing Efficiency 1 mM Theo>
0%

$$$$
>  <substance>
A34: agRNA cassette TAGTTTAAACCGTT, SEQ ID NO: 7 (expressed or natural sequence)

>  <system>
galK 1 site

>  <Editing Efficiency 1 mM Theo>
57%

$$$$
>  <substance>
GU4: agRNA cassette GATTGGCCATACAT, SEQ ID NO: 37 (expressed or natural sequence)

>  <system>
galK 1 site

>  <Editing Efficiency 1 mM Theo>
0%

$$$$

----------
- System: galK 1 site
- assay_notes: red/white colony screen of editing efficiency at the galK 1 site (CREATE recombineering)
- Assay type: cell-based, E. coli MG1655
- details: no theophylline, 3 hours recovery
Marks after values point to notes of the source that are not given here.
Entries and their measured Editing Efficiency no Theo follow.
measurement_type: Editing Efficiency no Theo

>  <substance>
AU2: agRNA cassette ACCAGGCCAAGTAT, SEQ ID NO: 16 (expressed or natural sequence)

>  <system>
galK 1 site

>  <result>
0%

$$$$
>  <substance>
GC9: agRNA cassette GCAGGGCCTCTAAC, SEQ ID NO: 60 (expressed or natural sequence)

>  <system>
galK 1 site

>  <result>
0%

$$$$
>  <substance>
AU5: agRNA cassette ACTCGGCCTGAACT, SEQ ID NO: 19 (chemistry not given here)

>  <system>
galK 1 site

>  <result>
0%

$$$$
>  <substance>
AU19: agRNA cassette AATAGGCCCGCAGT, SEQ ID NO: 32 (expressed or natural sequence)

>  <system>
galK 1 site

>  <result>
0%

$$$$
>  <substance>
GU19: agRNA cassette GATCGGCCATAGAT, SEQ ID NO: 51 (chemistry not given here)

>  <system>
galK 1 site

>  <result>
3%**

$$$$
>  <substance>
RG53: agRNA cassette AGTGAGCTAAAAAT, SEQ ID NO: 3 (expressed or natural sequence)

>  <system>
galK 1 site

>  <result>
0%

$$$$
>  <substance>
AU20: agRNA cassette AAATGGCCGGCAAT, SEQ ID NO: 33 (expressed or natural sequence)

>  <system>
galK 1 site

>  <result>
0%

$$$$
>  <substance>
AU9: agRNA cassette AAACGGCCCACTGT, SEQ ID NO: 23 (expressed or natural sequence)

>  <system>
galK 1 site

>  <result>
1%

$$$$
>  <substance>
GC1: agRNA cassette GCTGGGCCCTTCCC, SEQ ID NO: 52 (expressed or natural sequence)

>  <system>
galK 1 site

>  <result>
0%

$$$$
>  <substance>
GC17: agRNA cassette GACCGGCCCCCCGC, SEQ ID NO: 67 (expressed or natural sequence)

>  <system>
galK 1 site

>  <result>
0%

$$$$
>  <substance>
GC7: agRNA cassette GGGGGGCCGAATAC, SEQ ID NO: 58 (expressed or natural sequence)

>  <system>
galK 1 site

>  <result>
1%

$$$$
>  <substance>
AU18: agRNA cassette AATAGGCCCAGACT, SEQ ID NO: 31 (expressed or natural sequence)

>  <system>
galK 1 site

>  <result>
0%

$$$$
>  <substance>
AU12: agRNA cassette AGAGGGCCGGGCGT, SEQ ID NO: 26 (expressed or natural sequence)

>  <system>
galK 1 site

>  <result>
0%

$$$$
>  <substance>
GU4: agRNA cassette GATTGGCCATACAT, SEQ ID NO: 37 (expressed or natural sequence)

>  <system>
galK 1 site

>  <result>
0%

$$$$
>  <substance>
GU17: agRNA cassette GTAAGGCCGCCGAT, SEQ ID NO: 49 (expressed or natural sequence)

>  <system>
galK 1 site

>  <result>
0%

$$$$
>  <substance>
AU16: agRNA cassette AACCGGCCCCGAGT, SEQ ID NO: 29 (expressed or natural sequence)

>  <system>
galK 1 site

>  <result>
0%

$$$$
>  <substance>
GC2: agRNA cassette GTCAGGCCTATACC, SEQ ID NO: 53 (expressed or natural sequence)

>  <system>
galK 1 site

>  <result>
0%

$$$$
>  <substance>
AU15: agRNA cassette ACCCGGCCATTCAT, SEQ ID NO: 28 (expressed or natural sequence)

>  <system>
galK 1 site

>  <result>
0%

$$$$
>  <substance>
GU5: agRNA cassette GGTTGGCCTAATAT, SEQ ID NO: 38 (expressed or natural sequence)

>  <system>
galK 1 site

>  <result>
0%

$$$$
>  <substance>
A14: agRNA cassette GGAGGTACGGTGCC, SEQ ID NO: 10 (expressed or natural sequence)

>  <system>
galK 1 site

>  <result>
2%

$$$$
>  <substance>
GU13: agRNA cassette GGCCGGCCAAGCAT, SEQ ID NO: 45 (expressed or natural sequence)

>  <system>
galK 1 site

>  <result>
0%

$$$$
>  <substance>
GU9: agRNA cassette GTTCGGCCCCGACT, SEQ ID NO: 41 (expressed or natural sequence)

>  <system>
galK 1 site

>  <result>
0%

$$$$
>  <substance>
GC4: agRNA cassette GGTCGGCCAGTAGC, SEQ ID NO: 55 (expressed or natural sequence)

>  <system>
galK 1 site

>  <result>
0%

$$$$
>  <substance>
GU6: agRNA cassette GGACGGCCAAGCAT, SEQ ID NO: 39 (expressed or natural sequence)

>  <system>
galK 1 site

>  <result>
0%

$$$$
>  <substance>
GU12: agRNA cassette GCCGGGCCTTTTTT, SEQ ID NO: 44 (expressed or natural sequence)

>  <system>
galK 1 site

>  <result>
0%

$$$$
>  <substance>
GU16: agRNA cassette GGGAGGCCAGCGAT, SEQ ID NO: 48 (expressed or natural sequence)

>  <system>
galK 1 site

>  <result>
1%

$$$$
>  <substance>
A10: agRNA cassette GATGGGCCTCCACC, SEQ ID NO: 9 (expressed or natural sequence)

>  <system>
galK 1 site

>  <result>
0%

$$$$
>  <substance>
GU1: agRNA cassette GACGGGCCTAATAT, SEQ ID NO: 34 (expressed or natural sequence)

>  <system>
galK 1 site

>  <result>
0%

$$$$
>  <substance>
GC18: agRNA cassette GATTGGCCGCAACC, SEQ ID NO: 68 (expressed or natural sequence)

>  <system>
galK 1 site

>  <result>
0%

$$$$
